system: Escherichia coli K-12 R5; assay: microbe, parasite or virus in culture; format: cell-based; conditions: K12R5; Escherichia coli K-12 R5; resistance mechanism AAC(6'); Mueller-Hinton agar, 37° C
recordedMetric: MIC

compound: NC[C@H]1O[C@H](O[C@H]2[C@H](O)[C@@H](O[C@H]3O[C@H](CO)[C@@H](O)[C@H](N)[C@H]3O)[C@H](N)C[C@@H]2N)[C@H](O)[C@@H](O)[C@@H]1O [KMA, kanamycin A, reference compound]
observedResult: > 100 µg/mL
//
compound: NC[C@H]1O[C@H](O[C@@H]2[C@@H](N)C[C@@H](N)[C@H](O[C@H]3O[C@H](CO)[C@@H](O)[C@H](N)[C@H]3O)C2(F)F)[C@H](O)[C@@H](O)[C@@H]1O [Compound 5FF-KMA, 5-deoxy-5,5-difluorokanamycin A]
observedResult: > 100 µg/mL
//
compound: CN[C@@H]1[C@@H](O)[C@@H](O[C@H]2[C@H](NC(=O)[C@@H](O)CCN)C[C@H](N)[C@@H](O[C@H]3O[C@H]([C@@H](C)N)CC[C@H]3N)C2(F)F)OC[C@]1(C)O [5FF-Genta-C2-AHB]
observedResult: 3.12 µg/mL
//
compound: CCN[C@@H]1C[C@H](N)[C@@H](O[C@H]2OC(CN)=CC[C@H]2N)[C@H](O)[C@H]1O[C@H]1OC[C@](C)(O)[C@H](NC)[C@H]1O [Netilmicin, netilmicin, reference compound]
observedResult: 50 µg/mL
//
compound: NCC[C@H](O)C(=O)N[C@@H]1C[C@H](N)[C@@H](O[C@H]2O[C@H](CN)[C@@H](O)C[C@H]2N)C(F)(F)[C@H]1O[C@H]1O[C@H](CO)[C@@H](O)[C@H](N)[C@H]1O [Compound 5FF-TOB-AHB]
observedResult: 3.12 µg/mL
//
compound: NCC[C@H](O)C(=O)N[C@@H]1C[C@H](N)[C@@H](O[C@H]2O[C@H](CN)CC[C@H]2N)C(F)(F)[C@H]1O[C@H]1O[C@H](CO)[C@@H](O)[C@H](N)[C@H]1O [Compound 5FF-DKB-AHB]
observedResult: 3.12 µg/mL
//
compound: CN[C@@H]1[C@@H](O)[C@@H](O[C@H]2[C@H](N)C[C@H](N)[C@@H](O[C@H]3O[C@H]([C@@H](C)NC)CC[C@H]3N)C2(F)F)OC[C@]1(C)O [Compound 5FF-Genta-C1, 5-deoxy-5,5-difluorogentamicin C1]
observedResult: 1.56 µg/mL
//
compound: CN[C@@H]1[C@@H](O)[C@@H](O[C@@H]2[C@@H](O)[C@H](O[C@H]3O[C@H]([C@@H](C)N)CC[C@H]3N)[C@@H](N)C[C@H]2N)OC[C@]1(C)O [Genta-C2, gentamicin C2, reference compound]
observedResult: 1.56 µg/mL
//
compound: NCC[C@H](O)C(=O)N[C@@H]1C[C@H](N)[C@@H](O[C@H]2O[C@H](CN)CC[C@H]2N)[C@H](F)[C@H]1O[C@H]1O[C@H](CO)[C@@H](O)[C@H](N)[C@H]1O [Compound 5F-DKB-AHB, reference compound]
observedResult: 12.5 µg/mL
